A collection of molecules and their measured composite z-score
biological target: Fibroblast growth factor 2 (Homo sapiens); experiment: FGF2 binders on small-molecule microarrays, primary screen, biochemical, small-molecule microarray, 635/667 nm fluorescence (AID 1133); conditions: small-molecule microarray binding, FGF2, fluorescence 635/667; higher = more signal
Form field (numeric): enter value without unit.

Take a look at these entries with their results.
[N-]=[N+]=NCc1ccccc1C[C@@]1(C(=O)NCCN2CCOCC2)N=C(c2ccc(OCCCO)cc2)O[C@@H]1c1ccccc1N=[N+]=[N-]: -0.498
C=CCOC(=O)[C@@H]1[C@H]2C(=O)O[C@H](c3ccccc3)[C@H](c3ccccc3)N2[C@H](c2ccc(OCCOC(=O)[C@H]3C[C@H]4C(=O)N[C@@H](CC(C)C)C(=O)N4[C@H]3c3ccc(O)cc3)cc2)[C@@]12C(=O)Nc1ccc(I)cc12: 1.87
CN(C)CCCNC(=O)[C@@H]1c2ccccc2C(=O)N(Cc2ccc(OC(F)(F)F)cc2)[C@H]1c1ccc(CO)cc1: -0.22
NC(=O)N1C(=O)C2C(C1=O)C1C=C(c3ccc(CO)cc3)C2C(C2CC2)N1Cc1sc2ccccc2c1Cl (centres undefined): 1.62
C=CCN1C(=O)[C@@]2(O[C@@H](CCn3cc([C@H](O)c4ccccc4)nn3)[C@H]([Si](C)(C)c3ccc(OC)cc3)[C@H]2C)c2ccccc21: 0.761

Task: State its composite z-score for this molecule: CCOC(=O)C[C@H]1[C@H](OC(=O)Cc2ccc3c(c2)OCO3)[C@@H](NC(=O)C2CCCCC2)c2cc(OCCCO)ccc2N1C(=O)c1ccc2ccccc2n1
Result: 1.71

Task: Recall and state the measured composite z-score for CC=CC(O)C1C=CC2C(=O)N(c3ccccc3)C(=O)C2N1Nc1ccccc1 (centres undefined) .
Result: 0.915

Task: Give the reported value of composite z-score for this record: COc1cc(CO)cc(I)c1O[C@H]1C=C(C(=O)NCCO)C[C@@H](N(CC2CCCCC2)C(=O)c2ccc(C(F)(F)F)cc2)[C@@H]1O
Result: 0.12

Task: Fill in composite z-score for record CCOC(=O)C[C@H]1[C@H](OC(=O)c2ccc(C(=O)c3ccccc3)cc2)[C@@H](NC(=O)c2ccc3ccccc3c2)c2cc(OCCCO)ccc2N1C(=O)c1ccccc1
Result: 0.436

Task: Provide only the value of recorded composite z-score for NC(=O)NCC#Cc1ccc2c(c1)[C@]1(C(=O)N2)[C@H](C(=O)O)[C@H]2C(=O)O[C@H](c3ccccc3)[C@H](c3ccccc3)N2[C@@H]1c1ccccc1OCCO
Result: 0.836

Task: Supply recorded composite z-score for NC(N)=NCc1cn(CCc2c[nH]c3ccccc23)nn1 here.
Result: 1.07

Task: Tell me composite z-score reported for C[C@]1(C(=O)NC2CC2)c2ccccc2C(=O)N(Cc2ccc(OC(F)(F)F)cc2)[C@H]1c1ccc(CO)cc1
Result: 0.0672

Task: Note composite z-score for the molecule shown: COc1cc2c(cc1O)C(C)N(Cc1cc3c(cc1Br)OCO3)CC2 (centres undefined)
Result: -0.437

Task: Tell us which composite z-score value is on record for CN(C)CCCNC(=O)[C@@H]1c2ccccc2C(=O)N(CC23CC4CC(CC(C4)C2)C3)[C@H]1c1ccc(CO)cc1
Result: 0.788

Task: Entry CC1CC/C=C\[C@H]2OC34C=CCN(c5ccc6ccccc6c5)C(=O)[C@H]3N(C(CO)C(C)C)C(=O)[C@@H]4C2C(=O)O1 (some centres undefined) needs its composite z-score filled in; supply it.
Result: -0.282

Task: Identify the reported composite z-score for the following entry. COc1c(C)cc(-c2cc3c(c(Cc4ccccc4)n2)[Si](C(C)C)(C(C)C)OC3)cc1C
Result: 0.0273

Task: Return reported composite z-score. Input molecule: C=C(COC)/C(=C/C[C@@H](OC(=O)c1ccncc1)c1ccc(CO)o1)c1cnc2ccccc2c1
Result: 1.61
